Hi there, I'd appreciate the recorded IC50 for every entry that follows.
tested on: phospho-serine 2056 DNA-PK in HCT116 cells; assay: DNA-PK phosphorylation at serine 2056 (cellular), ELISA in bleomycin-treated HCT116 cells; type: cell-based; settings: Homo sapiens, HCT-116, 6 h, cellular; HCT116 cells, 10 μM bleomycin, six hours; read-out: IC50 pDNA-PK

Q: Quick one: IC50 of COc1cnc(C(O)c2ccc(F)c(-c3ncnc4cc(N5CCOCC5)ccc34)c2)nc1 (centres unmarked) ?
Result: 10 to 30 µM

Q: Quick one: IC50 of NC(=O)c1ccc(C(O)c2cc(-c3ncnc4cc(N5CCOCC5)ccc34)c(F)cc2Cl)nn1 (centres unmarked) ?
Result: 0.5 to 5 µM

Q: Quick one: IC50 of OC(c1ccc(F)c(-c2ncnc3cc(N4CCOCC4)ccc23)c1)c1cncc(F)c1Cl (centres unmarked) ?
Result: < 0.5 µM

Q: Quick one: IC50 of COc1cnc(Cl)c(C(O)c2ccc(F)c(-c3ncnc4cc(N5CCOCC5)ccc34)c2)n1 (centres unmarked) ?
Result: < 0.5 µM

Q: Quick one: IC50 of O=c1ccc(C(O)c2cc(-c3ncnc4cc(N5CCOCC5)ccc34)c(F)cc2Cl)nn1CCO (centres unmarked) ?
Result: 0.5 to 5 µM

Q: Quick one: IC50 of COc1ncc(Cl)nc1C(O)c1ccc(F)c(-c2ncnc3cc(N4CCOCC4)ccc23)c1 (centres unmarked) ?
Result: < 0.5 µM

Q: Quick one: IC50 of OC(c1ccc(F)c(-c2ncnc3cc(N4CCOCC4)ccc23)c1)c1cccnn1 (centres unmarked) ?
Result: 0.5 to 5 µM

Q: Quick one: IC50 of COC(=O)c1ccc(C(O)c2cc(-c3ncnc4cc(N5CCOCC5)ccc34)c(F)cc2Cl)nn1 (centres unmarked) ?
Result: 5 to 10 µM
